MIC values, listed per item
test system: Klebsiella pneumoniae; test: Antibacterial activity against Klebsiella pneumoniae 12-2 after 18 to 24 hrs by standard twofold serial dilution method; type: functional

>  <COMPOUND>
CCO/N=C1/CN(c2cc3c(cc2F)c(=O)c(C(=O)O)cn3[C@@H]2C[C@@H]2F)[C@@H]1CN

>  <STUDY SYSTEM>
Klebsiella pneumoniae

>  <MIC / µg/mL>
0.25

$$$$
>  <COMPOUND>
NCC1CN(c2cc3c(cc2F)c(=O)c(C(=O)O)cn3[C@@H]2C[C@@H]2F)C/C1=N/OCc1ccccc1 (stereo partly specified)

>  <STUDY SYSTEM>
Klebsiella pneumoniae

>  <MIC / µg/mL>
0.25

$$$$
>  <COMPOUND>
CCO/N=C1/CN(c2cc3c(cc2F)c(=O)c(C(=O)O)cn3[C@@H]2C[C@@H]2F)CC1CN (stereo partly specified)

>  <STUDY SYSTEM>
Klebsiella pneumoniae

>  <MIC / µg/mL>
0.25

$$$$
>  <COMPOUND>
CO/N=C1/CCN(c2nc3c(cc2F)c(=O)c(C(=O)O)cn3[C@@H]2C[C@@H]2F)CC1N (stereo partly specified)

>  <STUDY SYSTEM>
Klebsiella pneumoniae

>  <MIC / µg/mL>
1

$$$$
>  <COMPOUND>
CCO/N=C1/CN(c2c(F)cc3c(=O)c(C(=O)O)cn([C@@H]4C[C@@H]4F)c3c2Cl)CC1CN (stereo partly specified)

>  <STUDY SYSTEM>
Klebsiella pneumoniae

>  <MIC / µg/mL>
1

$$$$
>  <COMPOUND>
CO/N=C1/CN(c2cc3c(cc2F)c(=O)c(C(=O)O)cn3[C@@H]2C[C@@H]2F)CC1CN (stereo partly specified)

>  <STUDY SYSTEM>
Klebsiella pneumoniae

>  <MIC / µg/mL>
0.25

$$$$

----------
MIC values, listed per item
tested on: Escherichia coli; assay: Antibacterial activity against Escherichia coli ATCC 25922 after 18 to 24 hrs by standard twofold serial dilution method; format: functional
RECORDED METRIC: MIC

>  <MOLECULE>
CO/N=C1/CN(c2nc3c(cc2F)c(=O)c(C(=O)O)cn3[C@@H]2C[C@@H]2F)[C@@H]1CN

>  <READING>
0.25 µg/mL

$$$$
>  <MOLECULE>
NC[C@@H]1/C(=N\OCc2ccccc2)CN1c1nc2c(cc1F)c(=O)c(C(=O)O)cn2[C@@H]1C[C@@H]1F

>  <READING>
0.5 µg/mL

$$$$
>  <MOLECULE>
CO/N=C1/CN(c2cc3c(cc2F)c(=O)c(C(=O)O)cn3[C@@H]2C[C@@H]2F)CC1CN (some centres not stated)

>  <READING>
0.03 µg/mL

$$$$
>  <MOLECULE>
NC[C@@H]1/C(=N\OCc2ccccc2)CN1c1cc2c(cc1F)c(=O)c(C(=O)O)cn2[C@@H]1C[C@@H]1F

>  <READING>
0.25 µg/mL

$$$$
>  <MOLECULE>
NC[C@H]1/C(=N\OCc2ccccc2)CN1c1nc2c(cc1F)c(=O)c(C(=O)O)cn2[C@@H]1C[C@@H]1F

>  <READING>
0.125 µg/mL

$$$$
>  <MOLECULE>
CO/N=C1/CN(c2nc3c(cc2F)c(=O)c(C(=O)O)cn3[C@@H]2C[C@@H]2F)CC1CN (some centres not stated)

>  <READING>
0.06 µg/mL

$$$$
>  <MOLECULE>
O=C(O)c1cn(C2CC2)c2cc(N3CCNCC3)c(F)cc2c1=O

>  <READING>
< 0.008 µg/mL

$$$$
>  <MOLECULE>
CO/N=C1/CCN(c2c(F)cc3c(=O)c(C(=O)O)cn([C@@H]4C[C@@H]4F)c3c2OC)CC1N (some centres not stated)

>  <READING>
0.06 µg/mL

$$$$
>  <MOLECULE>
CCO/N=C1/CN(c2cc3c(cc2F)c(=O)c(C(=O)O)cn3[C@@H]2C[C@@H]2F)[C@H]1CN

>  <READING>
0.03 µg/mL

$$$$
>  <MOLECULE>
NC[C@H]1/C(=N\OCc2ccccc2)CN1c1cc2c(cc1F)c(=O)c(C(=O)O)cn2[C@@H]1C[C@@H]1F

>  <READING>
0.125 µg/mL

$$$$
>  <MOLECULE>
CO/N=C1/CCN(c2nc3c(cc2F)c(=O)c(C(=O)O)cn3[C@@H]2C[C@@H]2F)CC1N (some centres not stated)

>  <READING>
0.25 µg/mL

$$$$
>  <MOLECULE>
CO/N=C1/CCN(c2c(F)cc3c(=O)c(C(=O)O)cn([C@@H]4C[C@@H]4F)c3c2Cl)CC1N (some centres not stated)

>  <READING>
1 µg/mL

$$$$
>  <MOLECULE>
CCO/N=C1/CN(c2nc3c(cc2F)c(=O)c(C(=O)O)cn3[C@@H]2C[C@@H]2F)[C@@H]1CN

>  <READING>
0.5 µg/mL

$$$$
>  <MOLECULE>
COc1c(N2C[C@@H]3CCCN[C@@H]3C2)c(F)cc2c(=O)c(C(=O)O)cn(C3CC3)c12

>  <READING>
< 0.008 µg/mL

$$$$
>  <MOLECULE>
CCO/N=C1/CN(c2c(F)cc3c(=O)c(C(=O)O)cn([C@@H]4C[C@@H]4F)c3c2Cl)CC1CN (some centres not stated)

>  <READING>
0.5 µg/mL

$$$$
>  <MOLECULE>
CO/N=C1/CCN(c2cc3c(cc2F)c(=O)c(C(=O)O)cn3[C@@H]2C[C@@H]2F)CC1N (some centres not stated)

>  <READING>
0.25 µg/mL

$$$$
>  <MOLECULE>
NCC1CN(c2nc3c(cc2F)c(=O)c(C(=O)O)cn3[C@@H]2C[C@@H]2F)C/C1=N/OCc1ccccc1 (some centres not stated)

>  <READING>
< 0.008 µg/mL

$$$$
